tested on: OVCAR-8 ovarian; experiment: NCI tumour cell line growth inhibition, 48 h
measurement.type: TGI

1. CC1(C)CC[C@]2(C(N)=O)CC[C@]3(C)C(=CC[C@@H]4[C@@]5(C)C/C(=C/c6ccncc6)C(=O)C(C)(C)[C@@H]5CC[C@]43C)[C@@H]2C1    > 100 µM
2. CC1=NN(C(=O)c2ccccc2O)C(=O)/C1=C/c1cccc([N+](=O)[O-])c1    > 100 µM
3. O=C1CN(/N=C/c2ccc(-c3ccc(F)cc3)o2)C(=O)N1    > 100 µM

----------
tested on: EKVX NSCLC
Known GI50 of a selection of compounds
measurement.type: GI50

1. C=[CH][Sn]([CH]=C)([O]c1cccc2cccnc12)[O]c1cccc2cccnc12    5.58 µM
2. CC/C=C\C/C=C\C[C@H](O)C/C=C1/C(=O)C=C[C@@H]1C/C=C\CCCC(=O)OC    3.15 µM
3. COc1cccc(/C=C/C(=O)c2cc3c(N)c(C(=O)Nc4cccc5ccccc45)sc3nc2C)c1    1.87 µM
4. CC1(C)CC[C@]2(C(N)=O)CC[C@]3(C)C(=CC[C@@H]4[C@@]5(C)C/C(=C/c6ccncc6)C(=O)C(C)(C)[C@@H]5CC[C@]43C)[C@@H]2C1    2.44 µM
5. CCC(CC(C)C)Nc1ccc(NC(CC)CC(C)C)cc1 (configuration not stated)    16.7 µM
6. CO[C@]1(CN2CCN3CCCC[C@@H]3C2)/C=C/C[C@H](C)[C@@H](C)S(=O)(=O)NC(=O)c2ccc3c(c2)N(C[C@@H]2CC[C@H]21)C[C@@]1(CCCc2cc(Cl)ccc21)CO3    1.55 µM
7. COc1cc(NC(=O)Nc2cnc(Nc3ccc(N4CCOCC4)cc3)nc2Oc2cccc(OC)c2)cc(OC)c1    2.17 µM

----------
tested on: OVCAR-3 ovarian; assay: NCI tumour cell line growth inhibition, 48 h
Property: TGI; scope: individual compounds
measurement.type: TGI (µM)

1) C[C@]12CC[C@H](OC3CCCCO3)CC1=CC[C@@H]1C2CC[C@]2(C)/C(=N/O)CCC12 (some centres not stated)    31.1
2) CSc1ccc(/C=C2\N=C(c3ccccc3)N(/N=C/c3cc4cc(C)ccc4nc3Cl)C2=O)cc1    48.7
3) O=C1c2ccccc2C(=O)N1c1nc(-c2ccc(Cl)cc2)cc(N2N=C(c3ccc(Br)cc3)CC2c2ccccc2)n1 (configuration not stated)    2.65
4) COc1ccc(CCc2cc(OC)c(OC)c(OC)c2)cc1    0.523
5) O=[N+]([O-])c1ccc(C(Nc2ccccc2)c2ccc3cccnc3c2O)cc1 (configuration not stated)    33.6
6) CN(C=O)/C=C/c1cc(O)ccc1O    32.5
7) CCSC(SCC)=C1C(=O)N(c2ccccc2)N=C1C    20.2

----------
test system: NCI-H23 lung; assay: NCI tumour cell line growth inhibition, 48 h
measurement.type: TGI

1. Cc1[nH]c(=O)[nH]c(=S)c1C(=O)Nc1cccc2cc3ccccc3cc12    > 100 µM
2. COc1c(C)c(C/C=C(\C)CC/C=C(\C)CCC=C(C)C)c(OC)c(OC)c1OC    > 100 µM
3. CCOc1ccc(C(CN2CCOCC2)C(C)=O)cc1OC (stereo not drawn)    32.9 µM
4. O=C(Cc1csc2nc(-c3ccc(Br)cc3)cn12)N/N=C/c1ccc(O)cc1    32.2 µM
5. CCOP(=O)(Nc1ccc2oc(=O)c3ccccc3c2c1)OCC    > 100 µM
6. Cc1cc2c(c(=O)n1C)SCC2    > 100 µM
7. CSc1ccc(C(=O)C(=O)c2ccc(SC)s2)s1    > 10 µM
8. C#CCC1(C(=O)OCC)C(=O)c2ccccc2N(C)C1=O (stereo not drawn)    36.9 µM
9. CCCCCCCCCCCCCc1nn[nH]n1    44.6 µM
10. N=C1C=C(N)C(=O)c2[nH]c(=O)ccc21    4.09 µM
11. O=C(Nc1cccc(NC(=O)c2cc(=O)c3ccccc3o2)n1)c1cc(=O)c2ccccc2o1    > 100 µM
12. CN1CCN(c2nc(-c3ccncc3)nc3sc4c(c23)CCCCCC4)CC1    24.3 µM
13. CC(C)(C)OC(=O)n1cc(C2CN(O)C(=O)C23CCC(=O)N3Cc2ccccc2)c2ccccc21 (stereo not drawn)    > 100 µM
14. Cc1ccccc1OC(C)C(=O)NN1C(=O)CC(=O)N(c2ccccc2)C1=S (stereo not drawn)    > 100 µM
15. C=CC1CN2CCC1CC2C(O)c1ccnc2ccccc12 (stereo not drawn)    > 100 µM
16. COC(=O)c1c(-c2ccc(Cl)cc2)cc2c3ccccc3n(C)c2c1C(=O)OC    > 100 µM
17. CCOC(=O)C1CCCCN1CCc1c[nH]c2ccccc12 (stereo not drawn)    > 100 µM
18. C[N+](C)(C)CC1CCCC(C[N+](C)(C)C)C1O (stereo not drawn)    > 100 µM
